TEST TARGET: T1, native human ApoC3 (human, UniProt P02656 21-99)
T1 construct: also called nhuApoC3; native huApoC3
T1 sequence (P02656 21-99): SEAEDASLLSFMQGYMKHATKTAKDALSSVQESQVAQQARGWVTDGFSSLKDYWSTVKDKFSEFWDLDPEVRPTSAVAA
ASSAY EXPLANATION: SPR, ApoC3 over captured IgG1, pH 7.4
READOUT KIND: kon (M⁻¹ s⁻¹)
// note: answer is a bare numeric in M⁻¹ s⁻¹

Query block: Returns the measured kon for the input binder. Input: mAb17 (antibody, IgG1, V domains shown, Produced as full length IgG1 (kappa) in ExpiCHO-S cells; also called humanized anti-ApoC3 antibody mAb17) VH: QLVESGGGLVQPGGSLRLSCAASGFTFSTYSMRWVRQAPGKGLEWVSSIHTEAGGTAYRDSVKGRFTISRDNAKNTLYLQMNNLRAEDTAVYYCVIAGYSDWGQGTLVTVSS VL: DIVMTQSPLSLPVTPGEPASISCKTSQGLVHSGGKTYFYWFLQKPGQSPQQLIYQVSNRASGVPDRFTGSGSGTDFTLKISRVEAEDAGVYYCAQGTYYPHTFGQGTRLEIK
Result block: 98700

Query block: Returns the measured kon for the input binder. Input: mAb12 (antibody, IgG1, V domains shown, Produced as full length IgG1 (kappa) in ExpiCHO-S cells; also called humanized anti-ApoC3 antibody mAb12) VH: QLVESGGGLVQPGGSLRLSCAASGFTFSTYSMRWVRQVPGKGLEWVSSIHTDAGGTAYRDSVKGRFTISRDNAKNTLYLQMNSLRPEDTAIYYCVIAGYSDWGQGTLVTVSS VL: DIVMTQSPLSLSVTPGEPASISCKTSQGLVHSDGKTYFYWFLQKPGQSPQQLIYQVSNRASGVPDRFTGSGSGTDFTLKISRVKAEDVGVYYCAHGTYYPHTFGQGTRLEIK
Result block: 20400

Query block: Returns the measured kon for the input binder. Input: mAb16 (antibody, IgG1, V domains shown, Produced as full length IgG1 (kappa) in ExpiCHO-S cells; also called humanized anti-ApoC3 antibody mAb16) VH: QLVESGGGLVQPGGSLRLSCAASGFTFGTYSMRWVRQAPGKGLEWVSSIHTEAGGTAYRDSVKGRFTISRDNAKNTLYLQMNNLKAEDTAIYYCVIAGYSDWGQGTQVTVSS VL: DIVMTQSPLSLPVTPGESASISCKTSQGLVHSGGKTYFYWFLQKPGQSPQQLIYQVSNRASGVPDRFTGSGSGTDFTLKISRVEAEDAGVYYCAHGTYYPHTFGSGTRLEIK
Result block: 78100
